Listed compounds paired with reported K
species on record: Rattus norvegicus; assay: Open TG-GATES - Regimen: Daily Repeat; type: toxicity, organism-based, Sprague-Dawley; design: regimen Daily Repeat, gender Male, age 6 weeks; details: in vivo, po, 300 mg/kg, […], tissue Plasma, route gavage, dose level Middle, time 14 day
metric: K

| compound | result |
| --- | --- |
| O=C(O)c1ccccc1Nc1ccccc1 | 4 meq/L |
| CC(=O)[C@@]1(O)CC[C@H]2[C@@H]3C=C(Cl)C4=CC(=O)CC[C@]4(C)[C@H]3CC[C@@]21C | 4.5 meq/L |
| CC(S)C(=O)NCC(=O)O (centres undefined) | 4.4 meq/L |
| CCCCNC(=O)NS(=O)(=O)c1ccc(C)cc1 [TOLBUTAMIDE] | 4 meq/L |

----------
organism: Rattus norvegicus; assay: Open TG-GATES - Regimen: Daily Repeat; assay type: toxicity, organism-based, Sprague-Dawley; set-up: regimen Daily Repeat, gender Male, age 6 weeks; conditions: in vivo, po, 300 mg/kg, […], tissue Kidney, route gavage, dose level Middle, time 7 day
KIDNEY_R overview
metric: KIDNEY_R (g)

| compound | units-of-measure | number |
| --- | --- | --- |
| O=C(O)c1ccccc1Nc1ccccc1 | g | 1.2 |
| CC(=O)[C@@]1(O)CC[C@H]2[C@@H]3C=C(Cl)C4=CC(=O)CC[C@]4(C)[C@H]3CC[C@@]21C | g | 1 |
| CC(S)C(=O)NCC(=O)O (centres undefined) | g | 1.1 |
| CCCCNC(=O)NS(=O)(=O)c1ccc(C)cc1 [TOLBUTAMIDE] | g | 1.1 |

----------
Quick reference: LIVER of the listed items.
organism: Rattus norvegicus; assay: Open TG-GATES - Regimen: Daily Repeat; assay type: toxicity, organism-based, Sprague-Dawley; parameters: regimen Daily Repeat, gender Male, age 6 weeks; conditions: in vivo, po, 300 mg/kg, […], tissue Liver, route gavage, dose level Middle, time 14 day
metric: LIVER (g)

| molecule | metric | number |
| --- | --- | --- |
| O=C(O)c1ccccc1Nc1ccccc1 | LIVER | 16.2 |
| CC(S)C(=O)NCC(=O)O (centres undefined) | LIVER | 13.9 |
| CCCCNC(=O)NS(=O)(=O)c1ccc(C)cc1 [TOLBUTAMIDE] | LIVER | 14.8 |
| CC(=O)[C@@]1(O)CC[C@H]2[C@@H]3C=C(Cl)C4=CC(=O)CC[C@]4(C)[C@H]3CC[C@@]21C | LIVER | 13.1 |

----------
organism: Rattus norvegicus; test: Open TG-GATES - Regimen: Daily Repeat; type: toxicity, organism-based, Sprague-Dawley; parameters: regimen Daily Repeat, gender Male, age 6 weeks; conditions: in vivo, po, 100 mg/kg, […], tissue Plasma, route gavage, dose level Low, time 14 day
metric: BUN (mg/dL)

| compound | number |
| --- | --- |
| CCCCNC(=O)NS(=O)(=O)c1ccc(C)cc1 [TOLBUTAMIDE] | 16.8 |
| CC(S)C(=O)NCC(=O)O (centres undefined) [TIOPRONIN] | 18.2 |
| O=C(O)c1ccccc1Nc1ccccc1 [FENAMIC ACID] | 14.2 |
| CC(=O)[C@@]1(O)CC[C@H]2[C@@H]3C=C(Cl)C4=CC(=O)CC[C@]4(C)[C@H]3CC[C@@]21C [CHLORMADINONE] | 17.2 |
